Cited source: ChEMBL document CHEMBL1152833

Property: Activity; scope: individual compounds
system: Mus musculus; experiment: Antioxidant activity against PTZ-induced lipid peroxidation in Swiss albino mouse brain assessed as malondialdehyde content per mg of protein at 100 mg/kg, ip preincubated for 30 mins before PTZ challenge measured after 4 hrs by TBARS assay; format: functional; conditions: route intraperitoneal
Answer format: numeric, pmol implied, no suffix.

Here is how some compounds turned out for Activity.
| compound | target | endpointUnit | Activity |
| --- | --- | --- | --- |
| O=C(N/N=C/c1ccc(Br)cc1)Nc1nc2c(ccc3ccccc32)s1 | Mus musculus | pmol | 292 |
| C1CCc2nnnn2CC1 [PENTYLENETETRAZOL] | Mus musculus | pmol | 418 |
| O=C(N/N=C/c1ccc([N+](=O)[O-])cc1)Nc1nc2c(ccc3ccccc32)s1 | Mus musculus | pmol | 309 |

For record O=C(N/N=C/c1ccc(F)cc1)Nc1nc2c(ccc3ccccc32)s1 the listed Activity is 278

According to the records, this compound CCCC(CCC)C(=O)O [VALPROIC ACID] displays Activity of 216
